Tested on: Escherichia coli TOP10;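 note: peptides expressed intracellularly from a pBAD plasmid library in pooled LB shake-flask culture, induced with 0.3% L-arabinose, DNA abundance read by NGS, three biological replicates, DESeq2 with apeglm shrinkage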
assay.name: shrunken log2 fold change of peptide-encoding DNA abundance (4.5 h post-induction vs induction); higher = less antimicrobial activity (less host growth inhibition)
measurement.parameters: time post-induction: 4.5 h; library: site-saturation at positions 5, 18, 19, 20
property.measured: shrunken log2 fold change

{"columns": ["seq.text", "property.measured", "observed.measurement"],
 "data": [
  ["RRIRVRPPRLPRPRPRPWRAPRP", "shrunken log2 fold change", 0.414],
  ["RRIRNRPPRLPRPRPRPTDPPRP", "shrunken log2 fold change", 0.162],
  ["RRIRRRPPRLPRPRPRPWSKPRP", "shrunken log2 fold change", -0.225],
  ["RRIRERPPRLPRPRPRPRYSPRP", "shrunken log2 fold change", -0.182],
  ["RRIRRRPPRLPRPRPRPMDKPRP", "shrunken log2 fold change", -0.283],
  ["RRIRKRPPRLPRPRPRPRDTPRP", "shrunken log2 fold change", 0.258],
  ["RRIRYRPPRLPRPRPRPTGRPRP", "shrunken log2 fold change", 0.0692],
  ["RRIRQRPPRLPRPRPRPDSLPRP", "shrunken log2 fold change", -0.0756],
  ["RRIRFRPPRLPRPRPRPHHAPRP", "shrunken log2 fold change", -0.291],
  ["RRIRPRPPRLPRPRPRPMPTPRP", "shrunken log2 fold change", 0.22],
  ["RRIRERPPRLPRPRPRPDLHPRP", "shrunken log2 fold change", -0.262],
  ["RRIRVRPPRLPRPRPRPVWRPRP", "shrunken log2 fold change", 0.309],
  ["RRIRARPPRLPRPRPRPNEPPRP", "shrunken log2 fold change", -0.115],
  ["RRIRTRPPRLPRPRPRPLKNPRP", "shrunken log2 fold change", -0.397],
  ["RRIRFRPPRLPRPRPRPRSLPRP", "shrunken log2 fold change", 0.0152],
  ["RRIRNRPPRLPRPRPRPFQNPRP", "shrunken log2 fold change", -0.0271],
  ["RRIRLRPPRLPRPRPRPYRGPRP", "shrunken log2 fold change", -0.246],
  ["RRIRVRPPRLPRPRPRPANPPRP", "shrunken log2 fold change", -0.21],
  ["RRIRSRPPRLPRPRPRPRTVPRP", "shrunken log2 fold change", 0.106],
  ["RRIRCRPPRLPRPRPRPEEAPRP", "shrunken log2 fold change", 0.642],
  ["RRIRSRPPRLPRPRPRPYKWPRP", "shrunken log2 fold change", -0.18],
  ["RRIRSRPPRLPRPRPRPSCTPRP", "shrunken log2 fold change", -0.0382],
  ["RRIRNRPPRLPRPRPRPEHYPRP", "shrunken log2 fold change", -0.38],
  ["RRIRWRPPRLPRPRPRPDRQPRP", "shrunken log2 fold change", -0.018],
  ["RRIRNRPPRLPRPRPRPFFDPRP", "shrunken log2 fold change", -0.0739],
  ["RRIRQRPPRLPRPRPRPMTNPRP", "shrunken log2 fold change", -0.0671],
  ["RRIRLRPPRLPRPRPRPNSAPRP", "shrunken log2 fold change", 0.0654],
  ["RRIRVRPPRLPRPRPRPLIWPRP", "shrunken log2 fold change", -0.0254],
  ["RRIRVRPPRLPRPRPRPCDMPRP", "shrunken log2 fold change", -0.448],
  ["RRIRTRPPRLPRPRPRPIELPRP", "shrunken log2 fold change", -0.0636],
  ["RRIRHRPPRLPRPRPRPFQPPRP", "shrunken log2 fold change", -0.135],
  ["RRIRDRPPRLPRPRPRPMCTPRP", "shrunken log2 fold change", -0.0135]
]}
